- Tested on: RD cells
- experiment_description: Detection of cytotoxicity in RD cells (CellTiter-Glo)
- Assay type: cell-based
- condition_info: 4 days, CellTiter-Glo, median toxic dose
measured_parameter: TD50 (µM)
// units = µM; emit number, no label

For orientation, consider the following solved cases.
CCOC(=O)/C=C/c1ccc2ncc3oc(=O)n(-c4cccc(C(F)(F)F)c4)c3c2c1 [WSX-1-13]
73.88
CC(=O)/C=C/c1cnc2ccc(-c3cn[nH]c3)cc2c1Nc1cccc(C(F)(F)F)c1 [HTL-3-26]
1.43

Please indicate TD50 recorded for CC(C)C(=O)Nc1ccc(-c2ccc3ncc4ccc(=O)n(-c5cccc(C(F)(F)F)c5)c4c3c2)cn1 [HTL-7-07]
0.46

###

- experiment_description: In vivo drug metabolism (pharmacokinetics) in mice, iv and po
- Design: species or system C57 male mice
- condition_info: male, C57, mouse, plasma, po, 10 mg/kg, po, read-out: peak time Tmax
measured_parameter: Tmax (min)
// units = min; emit number, no label

For orientation, consider the following solved cases.
CCC(=O)Nc1ccc(-c2ccc3ncc4ccc(=O)n(-c5cccc(C(F)(F)F)c5)c4c3c2)cn1
15
CN1CCN(c2ccc(-c3ccc4ncc5ccc(=O)n(-c6cccc(C(F)(F)F)c6)c5c4c3)cn2)CC1
19.8

Read the next record carefully.
Please indicate Tmax recorded for O=c1ccc2cnc3ccc(-c4cccnc4F)cc3c2n1-c1cccc(C(F)(F)F)c1
15

###

measured_parameter: melting point

For orientation, consider the following solved cases.
Cc1cc(Nc2ccc3ncc4ccc(=O)n(-c5cccc(C(F)(F)F)c5)c4c3c2)ccc1F
210 to 211 °C
CC(C)(C)c1ccc(Nc2ccc3ncc4ccc(=O)n(-c5cccc(C(F)(F)F)c5)c4c3c2)cc1
141 to 142 °C
CC(=O)/C=C/c1cnc2ccc(-c3ccc(F)nc3)cc2c1Nc1cccc(C(F)(F)F)c1
133 to 134 °C
CCCc1ccc(-c2ccc3ncc4oc(=O)n(-c5cccc(C(F)(F)F)c5)c4c3c2)cc1
220 to 221 °C
O=c1oc2cnc3ccc(-c4ccc(F)nc4)cc3c2n1-c1cccc(C(F)(F)F)c1
262 to 263 °C

Read the next record carefully.
Please indicate melting point recorded for CC(=O)/C=C/c1cnc2ccc(-c3ccc(C(N)=O)cc3)cc2c1Nc1cccc(C(F)(F)F)c1
211 to 214 °C

###

Items are presented alongside their recorded melting point.

For orientation, consider the following solved cases.
Nc1cncc(Nc2ccc3ncc4ccc(=O)n(-c5cccc(C(F)(F)F)c5)c4c3c2)c1 [HTL-6-29]
156 to 158 °C
CC(=O)/C=C/c1cnc2ccc(-c3ccc(N)nc3)cc2c1Nc1cccc(C(F)(F)F)c1 [HTL-2-34]
172 to 175 °C
O=c1ccc2cnc3ccc(Nc4ccc(Cl)nc4)cc3c2n1-c1cccc(C(F)(F)F)c1 [HTL-6-21]
137 to 138 °C
CC(=O)/C=C/c1cnc2ccc(-c3ccc(C#N)cc3)cc2c1Nc1cccc(C(F)(F)F)c1 [HTL-3-15]
173 to 174 °C

Please indicate melting point recorded for CC(=O)/C=C/c1cnc2ccc(-c3ccc(F)cc3)cc2c1Nc1cccc(C(F)(F)F)c1 [HTL-3-12]
167 to 169 °C

###

- experiment_description: In vivo drug metabolism (pharmacokinetics) in mice, iv and po
- Parameters: species or system C57 male mice
- condition_info: male, mouse, plasma; iv 1 mg/kg, C57 mice; read-out: AUC iv
Items are presented alongside their recorded AUC.
Answers without a unit are incomplete; give the number and then its unit.

O=c1ccc2cnc3ccc(-c4ccc(F)nc4)cc3c2n1-c1cccc(C(F)(F)F)c1
592 ng·h/mL

Please indicate AUC recorded for CCC(=O)Nc1ccc(-c2ccc3ncc4ccc(=O)n(-c5cccc(C(F)(F)F)c5)c4c3c2)cn1
95 ng·h/mL

Please indicate AUC recorded for CN1CCN(c2ccc(-c3ccc4ncc5ccc(=O)n(-c6cccc(C(F)(F)F)c6)c5c4c3)cn2)CC1
168 ng·h/mL

Please indicate AUC recorded for COc1ccc(-c2ccc3ncc4ccc(=O)n(-c5cccc(C(F)(F)F)c5)c4c3c2)cn1
668 ng·h/mL

Please indicate AUC recorded for O=c1ccc2cnc3ccc(-c4cccnc4F)cc3c2n1-c1cccc(C(F)(F)F)c1
651 ng·h/mL

###

- experiment_description: In vivo drug metabolism (pharmacokinetics) in mice, iv and po
- Set-up: species or system C57 male mice
- condition_info: iv, C57 mice
measured_parameter: apparent volume of distribution (Vss), in words

For orientation, consider the following solved cases.
O=c1ccc2cnc3ccc(-c4ccc(F)nc4)cc3c2n1-c1cccc(C(F)(F)F)c1 [HTL-7-01]
lower
CCC(=O)Nc1ccc(-c2ccc3ncc4ccc(=O)n(-c5cccc(C(F)(F)F)c5)c4c3c2)cn1 [HTL-6-45]
slightly higher
CN1CCN(c2ccc(-c3ccc4ncc5ccc(=O)n(-c6cccc(C(F)(F)F)c6)c5c4c3)cn2)CC1 [HTL-7-17]
slightly higher
O=c1ccc2cnc3ccc(-c4cccnc4F)cc3c2n1-c1cccc(C(F)(F)F)c1 [HTL-6-48]
lower

Read the next record carefully.
Please indicate apparent volume of distribution (Vss), in words recorded for COc1ccc(-c2ccc3ncc4ccc(=O)n(-c5cccc(C(F)(F)F)c5)c4c3c2)cn1 [HTL-7-03]
slightly higher

###

Items are presented alongside their recorded Cmax.
- experiment_description: In vivo drug metabolism (pharmacokinetics) in mice, iv and po
- Design: species or system C57 male mice
- condition_info: male, mouse; po 10 mg/kg, C57 mice, plasma
// units = ng/mL; emit number, no label

For orientation, consider the following solved cases.
O=c1ccc2cnc3ccc(-c4ccc(F)nc4)cc3c2n1-c1cccc(C(F)(F)F)c1
298
O=c1ccc2cnc3ccc(-c4cccnc4F)cc3c2n1-c1cccc(C(F)(F)F)c1
1290
COc1ccc(-c2ccc3ncc4ccc(=O)n(-c5cccc(C(F)(F)F)c5)c4c3c2)cn1
565
CCC(=O)Nc1ccc(-c2ccc3ncc4ccc(=O)n(-c5cccc(C(F)(F)F)c5)c4c3c2)cn1
42.9

Read the next record carefully.
Please indicate Cmax recorded for CN1CCN(c2ccc(-c3ccc4ncc5ccc(=O)n(-c6cccc(C(F)(F)F)c6)c5c4c3)cn2)CC1
144

###

- target_or_system: mTOR kinase (Homo sapiens, UniProt P42345)
- Construct: purchased Thermo Fisher PV4753
- Sequence (P42345 1360-2549 limits assumed): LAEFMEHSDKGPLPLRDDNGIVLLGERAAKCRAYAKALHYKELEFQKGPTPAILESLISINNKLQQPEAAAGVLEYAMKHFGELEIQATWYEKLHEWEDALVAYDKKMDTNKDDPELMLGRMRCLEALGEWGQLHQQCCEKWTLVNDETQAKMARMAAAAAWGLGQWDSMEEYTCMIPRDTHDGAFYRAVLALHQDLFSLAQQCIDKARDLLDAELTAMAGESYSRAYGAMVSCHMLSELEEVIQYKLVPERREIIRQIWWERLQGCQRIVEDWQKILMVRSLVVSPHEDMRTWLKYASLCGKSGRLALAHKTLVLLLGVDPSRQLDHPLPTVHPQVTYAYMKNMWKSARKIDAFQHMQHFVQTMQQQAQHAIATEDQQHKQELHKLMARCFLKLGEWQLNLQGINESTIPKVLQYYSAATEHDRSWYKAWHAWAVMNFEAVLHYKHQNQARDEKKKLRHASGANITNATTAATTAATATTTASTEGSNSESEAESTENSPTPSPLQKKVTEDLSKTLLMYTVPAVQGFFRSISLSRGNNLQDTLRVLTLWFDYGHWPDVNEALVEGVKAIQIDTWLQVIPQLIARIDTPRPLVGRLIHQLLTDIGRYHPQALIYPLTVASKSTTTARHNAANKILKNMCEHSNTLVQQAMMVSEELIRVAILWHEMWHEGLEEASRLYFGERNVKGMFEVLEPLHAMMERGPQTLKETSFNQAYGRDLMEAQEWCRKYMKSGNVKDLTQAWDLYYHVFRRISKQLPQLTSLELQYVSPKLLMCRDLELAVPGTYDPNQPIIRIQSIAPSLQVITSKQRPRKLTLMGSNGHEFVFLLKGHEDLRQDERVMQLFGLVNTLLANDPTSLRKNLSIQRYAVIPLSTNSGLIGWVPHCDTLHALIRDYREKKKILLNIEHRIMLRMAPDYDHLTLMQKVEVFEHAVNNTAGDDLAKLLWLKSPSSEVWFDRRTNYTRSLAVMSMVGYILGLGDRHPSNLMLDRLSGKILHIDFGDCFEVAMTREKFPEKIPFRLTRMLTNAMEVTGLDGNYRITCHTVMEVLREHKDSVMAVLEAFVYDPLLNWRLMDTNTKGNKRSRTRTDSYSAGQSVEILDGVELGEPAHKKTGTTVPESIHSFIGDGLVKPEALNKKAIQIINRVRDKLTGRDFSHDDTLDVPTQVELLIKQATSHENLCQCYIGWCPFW
- experiment_description: In vitro inhibitory activity on mTOR kinase (TR-FRET, GFP-4E-BP1 substrate)
- Type: biochemical
measured_parameter: inhibitory activity on mTOR kinase, in words

CC(=O)/C=C/c1cnc2ccc(-c3ccc(N)cc3)cc2c1Nc1cccc(C(F)(F)F)c1 [HTL-2-35]
weak inhibitory activity
CC(=O)/C=C/c1cnc2ccc(-c3ccc(C)nc3)cc2c1Nc1cccc(C(F)(F)F)c1 [HTL-2-38]
weak inhibitory activity

###

- Test system: RD cells
- experiment_description: Detection of cytotoxicity in RD cells (CellTiter-Glo)
- Type: cell-based
- condition_info: 4 days, CellTiter-Glo, median toxic dose
Items are presented alongside their recorded TD50.
// units = µM; emit number, no label

For orientation, consider the following solved cases.
O=c1ccc2cnc3ccc(-c4cccnc4F)cc3c2n1-c1cccc(C(F)(F)F)c1
1.23
O=c1ccc2cnc3ccc(Nc4ccc(F)cc4)cc3c2n1-c1cccc(C(F)(F)F)c1
7.22
COc1cc(-c2ccc3ncc4ccc(=O)n(-c5cccc(C(F)(F)F)c5)c4c3c2)cnc1N
0.06
N#Cc1ccc(Nc2ccc3ncc4ccc(=O)n(-c5cccc(C(F)(F)F)c5)c4c3c2)cc1
6.95
N#Cc1cncc(-c2ccc3ncc4oc(=O)n(-c5cccc(C(F)(F)F)c5)c4c3c2)c1
13.41

Please indicate TD50 recorded for COc1ccc(CC(=O)Nc2ccc(-c3ccc4ncc5ccc(=O)n(-c6cccc(C(F)(F)F)c6)c5c4c3)cn2)cc1
0.19

Please indicate TD50 recorded for Cc1cc(Nc2ccc3ncc4ccc(=O)n(-c5cccc(C(F)(F)F)c5)c4c3c2)ccc1F
7.2

Please indicate TD50 recorded for O=c1ccc2cnc3ccc(-c4ccc(F)nc4)cc3c2n1-c1cccc(C(F)(F)F)c1
0.23

Please indicate TD50 recorded for CC(=O)/C=C/c1cnc2ccc(-c3ccc(C)nc3)cc2c1Nc1cccc(C(F)(F)F)c1
8.71

Please indicate TD50 recorded for CCOC(=O)/C=C/c1ccc2ncc3ccc(=O)n(-c4cccc(C(F)(F)F)c4)c3c2c1
1.29

Please indicate TD50 recorded for O=c1ccc2cnc3ccc(-c4cc[nH]n4)cc3c2n1-c1cccc(C(F)(F)F)c1
0.17

Please indicate TD50 recorded for CC(C)c1ccc(-c2ccc3ncc4oc(=O)n(-c5cccc(C(F)(F)F)c5)c4c3c2)cc1
69.36

Please indicate TD50 recorded for COc1cncc(-c2ccc3ncc4oc(=O)n(-c5cccc(C(F)(F)F)c5)c4c3c2)c1
68.52

###

# collection of pIC50 values tested on mTOR kinase (Homo sapiens)
The meaning of pIC50 here: minus log10 of the concentration in molar units.

For orientation, consider the following solved cases.
O=c1ccc2cnc3ccc(-c4cccnc4F)cc3c2n1-c1cccc(C(F)(F)F)c1
7.50
NC(=O)c1ccc(-c2ccc3ncc4oc(=O)n(-c5cccc(C(F)(F)F)c5)c4c3c2)cc1
7.82
Cc1ccc(-c2ccc3ncc4oc(=O)n(-c5cccc(C(F)(F)F)c5)c4c3c2)cn1
6.59

Answer briefly: pIC50 recorded on mTOR kinase (Homo sapiens) for Nc1cccc(Nc2ccc3ncc4ccc(=O)n(-c5cccc(C(F)(F)F)c5)c4c3c2)n1
7.17

Answer briefly: pIC50 recorded on mTOR kinase (Homo sapiens) for CCCC(=O)Nc1ccc(-c2ccc3ncc4ccc(=O)n(-c5cccc(C(F)(F)F)c5)c4c3c2)cn1
7.41

// provenance: patent US20220220106A1
